target: UniProt:Q13315; experiment: Inhibition of ATM (unknown origin) using GST-cMyc-p53 as substrate incubated for 30 mins in presence of Mg/ATP mix by HTRF-based analysis
Sequence (Q13315 whole entry): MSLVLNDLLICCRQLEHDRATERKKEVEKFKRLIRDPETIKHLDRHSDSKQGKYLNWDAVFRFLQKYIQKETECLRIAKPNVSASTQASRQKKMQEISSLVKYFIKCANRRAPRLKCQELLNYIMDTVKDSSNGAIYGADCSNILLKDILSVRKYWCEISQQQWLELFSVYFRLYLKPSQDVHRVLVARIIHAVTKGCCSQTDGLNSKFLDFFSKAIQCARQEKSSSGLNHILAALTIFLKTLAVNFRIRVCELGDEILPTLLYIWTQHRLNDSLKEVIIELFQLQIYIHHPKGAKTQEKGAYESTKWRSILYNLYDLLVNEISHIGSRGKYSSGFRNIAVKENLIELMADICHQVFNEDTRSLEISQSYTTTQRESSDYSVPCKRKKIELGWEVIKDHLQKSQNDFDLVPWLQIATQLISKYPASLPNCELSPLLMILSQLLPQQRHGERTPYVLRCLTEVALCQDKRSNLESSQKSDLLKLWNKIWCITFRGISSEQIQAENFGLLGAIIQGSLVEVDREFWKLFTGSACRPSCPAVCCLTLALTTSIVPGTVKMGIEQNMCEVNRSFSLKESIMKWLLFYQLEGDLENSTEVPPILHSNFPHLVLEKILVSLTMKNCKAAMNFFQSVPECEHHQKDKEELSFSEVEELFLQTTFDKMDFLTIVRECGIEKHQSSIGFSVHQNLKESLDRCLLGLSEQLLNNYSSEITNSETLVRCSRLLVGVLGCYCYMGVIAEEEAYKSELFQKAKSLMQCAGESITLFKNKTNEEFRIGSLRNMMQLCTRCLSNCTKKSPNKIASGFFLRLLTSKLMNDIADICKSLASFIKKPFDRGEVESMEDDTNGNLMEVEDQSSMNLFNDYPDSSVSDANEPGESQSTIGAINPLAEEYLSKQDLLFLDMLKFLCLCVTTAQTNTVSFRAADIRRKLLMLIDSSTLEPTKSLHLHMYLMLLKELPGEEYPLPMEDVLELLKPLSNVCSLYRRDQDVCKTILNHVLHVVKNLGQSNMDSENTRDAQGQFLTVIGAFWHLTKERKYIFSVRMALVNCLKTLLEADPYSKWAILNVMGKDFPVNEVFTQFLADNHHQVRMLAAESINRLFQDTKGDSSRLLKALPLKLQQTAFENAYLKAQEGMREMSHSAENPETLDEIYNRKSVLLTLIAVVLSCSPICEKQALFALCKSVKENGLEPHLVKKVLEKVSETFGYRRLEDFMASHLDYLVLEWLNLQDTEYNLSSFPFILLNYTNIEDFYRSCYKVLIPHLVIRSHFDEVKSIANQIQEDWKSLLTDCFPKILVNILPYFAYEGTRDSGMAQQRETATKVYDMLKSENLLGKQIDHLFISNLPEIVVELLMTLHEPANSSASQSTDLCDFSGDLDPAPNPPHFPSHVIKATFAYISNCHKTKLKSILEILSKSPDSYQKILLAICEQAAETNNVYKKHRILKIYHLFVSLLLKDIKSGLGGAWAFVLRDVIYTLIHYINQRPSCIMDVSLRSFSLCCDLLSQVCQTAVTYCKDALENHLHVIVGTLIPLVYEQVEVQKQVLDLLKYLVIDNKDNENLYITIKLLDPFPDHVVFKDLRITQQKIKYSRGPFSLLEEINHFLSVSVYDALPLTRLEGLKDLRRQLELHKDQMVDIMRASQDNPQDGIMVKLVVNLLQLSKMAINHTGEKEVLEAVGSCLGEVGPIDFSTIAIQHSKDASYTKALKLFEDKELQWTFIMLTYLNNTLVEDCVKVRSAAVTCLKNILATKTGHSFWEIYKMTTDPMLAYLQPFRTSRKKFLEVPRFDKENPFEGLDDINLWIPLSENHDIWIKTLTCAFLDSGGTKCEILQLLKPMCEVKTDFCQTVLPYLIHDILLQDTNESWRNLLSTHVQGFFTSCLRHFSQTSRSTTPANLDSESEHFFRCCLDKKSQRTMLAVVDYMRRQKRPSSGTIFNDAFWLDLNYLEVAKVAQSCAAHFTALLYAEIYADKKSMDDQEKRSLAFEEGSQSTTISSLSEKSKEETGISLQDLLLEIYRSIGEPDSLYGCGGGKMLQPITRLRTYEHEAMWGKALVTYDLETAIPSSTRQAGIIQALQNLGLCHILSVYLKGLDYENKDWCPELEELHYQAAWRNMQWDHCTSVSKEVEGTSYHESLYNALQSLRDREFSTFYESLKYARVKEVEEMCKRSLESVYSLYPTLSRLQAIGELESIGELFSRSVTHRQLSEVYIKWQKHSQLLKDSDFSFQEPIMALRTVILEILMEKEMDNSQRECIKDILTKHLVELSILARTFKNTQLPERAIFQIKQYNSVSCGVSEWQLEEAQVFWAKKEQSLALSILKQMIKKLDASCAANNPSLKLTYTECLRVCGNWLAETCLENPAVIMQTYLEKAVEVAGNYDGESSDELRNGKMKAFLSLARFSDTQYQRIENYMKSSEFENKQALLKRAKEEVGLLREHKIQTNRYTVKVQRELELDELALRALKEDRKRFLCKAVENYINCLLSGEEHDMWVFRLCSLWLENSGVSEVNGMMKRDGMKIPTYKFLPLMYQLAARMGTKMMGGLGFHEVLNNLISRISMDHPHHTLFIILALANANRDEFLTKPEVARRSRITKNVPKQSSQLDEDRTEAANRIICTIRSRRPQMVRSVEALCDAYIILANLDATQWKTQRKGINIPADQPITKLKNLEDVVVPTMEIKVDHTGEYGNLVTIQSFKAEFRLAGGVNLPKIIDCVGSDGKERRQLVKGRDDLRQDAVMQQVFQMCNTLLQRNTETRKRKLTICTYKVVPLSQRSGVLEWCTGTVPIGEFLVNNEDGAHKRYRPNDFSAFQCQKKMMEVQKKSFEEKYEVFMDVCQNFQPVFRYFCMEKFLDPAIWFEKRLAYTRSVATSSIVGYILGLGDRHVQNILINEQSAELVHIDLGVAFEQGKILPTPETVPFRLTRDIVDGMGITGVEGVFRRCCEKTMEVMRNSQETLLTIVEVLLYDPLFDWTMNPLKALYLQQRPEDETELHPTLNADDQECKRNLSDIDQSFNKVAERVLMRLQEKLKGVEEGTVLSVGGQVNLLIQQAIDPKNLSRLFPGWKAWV
assay-readout: IC50 (nM)
Hi! Could you send only the number? It should be in nM, unit omitted.

Before answering, review these 5 worked examples.
In [3]: df
Out[3]:
                           molecular_string  unit_descriptor  measurement
0  C[C@H](c1ccccc1)n1nnc2cnc3ccc(-c4ccc(N5CCN(C)CC5)nc4)cc3c21               nM            6
1  Cc1ccc(-c2ccc3ncc4nnn([C@H](C)c5ccccc5)c4c3c2)cn1               nM           35
2  C[C@H](c1ccccc1)n1nnc2cnc3ccc(-c4ccnc(N)c4)cc3c21               nM           22
3  C[C@H](c1ccccc1)n1nnc2cnc3ccc(-c4ccc(F)cc4)cc3c21               nM          174
4  C[C@H](c1ccccc1)n1nnc2cnc3ccc(-c4ccc(OCCCN5CCCC5)nc4)cc3c21               nM            2

Record `COc1ccc([C@H](C)n2nnc3cnc4ccc(-c5ccc(N)nc5)cc4c32)cc1` , field IC50: 103

Record `C[C@H](c1ccccc1)n1nnc2cnc3ccc(-c4ccc(OCCN(C)C)nc4)cc3c21` , field IC50: 19

Record `C[C@@H](c1ccccc1)n1nnc2cnc3ccc(-c4ccc(N)nc4)cc3c21` , field IC50: 45

Record `C[C@H](c1ccccc1)n1nnc2cnc3ccc(-c4ccc(OCCCN5CCCCC5)nc4)cc3c21` , field IC50: 2

Record `C[C@H](c1ccccc1)n1nnc2cnc3ccc(-c4ccc(O)cc4)cc3c21` , field IC50: 52

Record `Nc1ccc(-c2ccc3ncc4nnn(Cc5ccccc5)c4c3c2)cn1` , field IC50: 8

Record `C[C@H](c1ccccc1)n1nnc2cnc3ccc(-c4ccc(OCCCCN(C)C)nc4)cc3c21` , field IC50: 10

Record `C[C@@H](c1cccc(F)c1)n1nnc2cnc3ccc(-c4ccc(N)nc4)cc3c21` , field IC50: 53

Record `C[C@H](c1ccccc1)n1nnc2cnc3ccc(-c4ccc(N)cc4)cc3c21` , field IC50: 15

Record `C[C@H](c1ccc(F)cc1)n1nnc2cnc3ccc(-c4ccc(N)nc4)cc3c21` , field IC50: 4
